normalized growth for assorted molecules
- assay.overview: chemical genetic growth profiling, strain panel (AID 1159580);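 note: tested at 20 µM; growth read once vehicle control cultures reached saturation at 30 °C; 1 = growth at the plate median or of vehicle wells; lower values mean less growth of the strain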
- measurement.context: S. cerevisiae deletion strains, growth OD, locus YJR075W, strain HOC1, stronger effect = lower value
About 2,000 (36%) of roughly 5,500 compounds were called active. Not shown: some 18% with an inconclusive outcome. The list shows a part of the results.
No unit in the answer, please; the number alone is enough.

Quick note, normalized growth for COc1cc(NS(=O)(=O)c2ccc(N)cc2)ncn1 landed at 0.984

Next:
The molecule listed as CC(=O)OCC1=C(C(=O)O)N2C(=O)[C@@H](NC(=O)CCCC(N)C(=O)O)C2SC1 (some centres undefined) has a reported normalized growth of 1.05

Entry COc1cc(/C=C2/N=C(c3ccccc3I)OC2=O)cc(OC)c1OC ; normalized growth = 1.01

// normalized growth value for COc1cccc(NC(=O)NC2Cc3ccccc3C2)c1 : 0.996

* * *

- assay.overview: chemical genetic growth profiling, strain panel (AID 1159580)
- measurement.context: S. cerevisiae deletion strains, growth OD, locus YLL001W, strain dnm1, stronger effect = lower value
Screen size: about 5,500 compounds; about 2,000 (36%) were called active. Roughly 18% stayed inconclusive and do not appear here. The list shows a part of the results.
Reported normalized growth by item:
Enter the number alone.

These solved cases illustrate the format of a correct answer.
The recorded normalized growth for CC(=O)OC1CCC2(C)C3CC(=O)C4(C)C(CC5OC6(CCC(C)CO6)[C@@H](C)C54)C3CC[C@H]2C1 (stereo partly specified) is 1.01

// CNCC[C@@H](Oc1ccccc1)c1ccccc1 : normalized growth value = 0.988

The recorded normalized growth for entry CNS(=O)(=O)c1ccc(NC(=O)c2ccccc2C(=O)O)cc1 equals 1.01

Field normalized growth (entry NCCNCCNCCN ) reads 0.997

The recorded normalized growth for entry O=c1[nH]cnc2c1ncn2C1O[C@H](CO)[C@@H](O)[C@H]1O (stereo partly specified) equals 1.01

What the record says about NC[C@H]1O[C@H](O[C@H]2C(O[C@@H]3O[C@H](CO)[C@@H](O)[C@H]3O)[C@@H](O)[C@H](N)C[C@@H]2N)[C@H](N)[C@@H](O)[C@@H]1O (stereo partly specified) : normalized growth is 1

normalized growth reported for this molecule COc1cc2c(cc1O)CCNC2C (stereo unspecified) : 0.982

The molecule listed as CC1(C)C(=O)[C@@H]2C[C@@]3(O)C4=CC(=O)O[C@@H](c5ccoc5)[C@]4(C)CCC3[C@@](C)(C2=O)[C@H]1CC(=O)O (stereo partly specified) has a reported normalized growth of 1.01

For record NC[C@H]1O[C@H](O[C@H]2[C@H](O)[C@@H](O[C@H]3O[C@H](CO)[C@@H](O)[C@H](N)[C@H]3O)[C@H](N)C[C@@H]2N)[C@H](N)C[C@@H]1O the listed normalized growth is 0.987

// sample COc1c2ccoc2cc2oc(C)cc(=O)c12 , its normalized growth was 0.998

We next turn to a different molecule, shown below.
Noted for COc1ccc2c(=O)ccoc2c1 : its normalized growth reads 1.02

* * *

- assay.overview: chemical genetic growth profiling, strain panel (AID 1159580)
- measurement.context: S. cerevisiae deletion strains, growth OD, locus YLR268W, strain sec22, stronger effect = lower value
Out of some 5,500 compounds screened, about 2,000 (36%) were called active. Inconclusive results (about 18%) are left out. This is one part of the list.
normalized growth values for the compounds below.
Output: the number by itself.

Sure, the documented normalized growth for Cc1onc(-c2c(Cl)cccc2Cl)c1C(=O)N[C@@H]1C(=O)N2[C@@H]1SC(C)(C)[C@@H]2C(=O)O is 0.987

# normalized growth of c1ccc([C@H]2CN3CCSC3=N2)cc1 = 0.993

The value of normalized growth measured for the compound COc1c2ccoc2cc2oc(C)cc(=O)c12 turned out to be 1.02

---
// recorded normalized growth for Cc1c(NC(=O)c2cccnc2)c(=O)n(-c2ccccc2)n1C : 0.982

Lookup result for COc1ccc2c(=O)ccoc2c1 ; measured normalized growth: 0.987

Briefly, normalized growth measured for COc1c2occc2c(OC)c2c(=O)cc(C)oc12 : 0.999

Field normalized growth (entry CN[C@@H]1[C@@H](O[C@H]2O[C@H](CO)[C@@H](N)[C@H](O)[C@H]2O)O[C@H]2C[C@@H](N)[C@H](O[C@H]3[C@H](O)[C@@H](O)[C@H](N)C[C@@H]3N)O[C@@H]2[C@@H]1O ) reads 0.981

* * *

Catalogue of normalized growth values
- assay.overview: chemical genetic growth profiling, strain panel (AID 1159580);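 note: tested at 20 µM; growth read once vehicle control cultures reached saturation at 30 °C; 1 = growth at the plate median or of vehicle wells; lower values mean less growth of the strain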
- measurement.context: S. cerevisiae deletion strains, growth OD, locus YDL101C, strain DUN1, stronger effect = lower value
Out of some 5,500 compounds screened, about 2,000 (36%) were called active. Another 18% or so got no clear call; they are omitted. This is one part of the list.
Lab note: write the figure by itself, no unit.

Consider the reported normalized growth for these compounds:
The recorded normalized growth for entry CC(=O)OC1CCC2(C)C3CC(=O)C4(C)C(CC5OC6(CCC(C)CO6)[C@@H](C)C54)C3CC[C@H]2C1 (some centres undefined) equals 0.992

Quick note, normalized growth for CC(=O)Nc1cc2ccccc2oc1=O landed at 0.975

Record COc1cc(NS(=O)(=O)c2ccc(N)cc2)ncn1 , field normalized growth: 0.979

Recorded normalized growth (compound CN1c2ccccc2C(C)(C)C12C=Cc1cc(O)ccc1O2 (centres undefined) ): 0.975

Short answer for CC(=O)O[C@H]1CC[C@]2(C)C3CC[C@@]4(C)C(CC5O[C@@]6(CCC(C)CO6)[C@@H](C)C54)C3CC[C@H]2C1 (some centres undefined) : normalized growth was 0.98

GET /value?item= CC(=O)OCC(=O)[C@@]1(O)CCC2C3CC[C@@H]4C[C@H](OC(C)=O)CC[C@]4(C)C3C(=O)C[C@@]21C (some centres undefined) &field=normalized growth returns 1.01

compound CN(C(=O)Nc1ccccc1)n1cnc2ccccc2c1=O , normalized growth observed: 1

Reported normalized growth ( CC(=O)c1cc2cc(Br)ccc2oc1=O ) = 0.998

New cases:
Kindly note the recorded normalized growth for O=[N+]([O-])c1ccc(-c2nn[nH]n2)cc1 , which is 0.988

* * *

- assay.overview: chemical genetic growth profiling, strain panel (AID 1159580);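 note: tested at 20 µM; growth read once vehicle control cultures reached saturation at 30 °C; 1 = growth at the plate median or of vehicle wells; lower values mean less growth of the strain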
- measurement.context: S. cerevisiae deletion strains, growth OD, locus YGR229C, strain SMI1, stronger effect = lower value
Among all 5,500 compounds or so, about 2,000 (36%) were called active. Roughly 18% stayed inconclusive and do not appear here. Some of the results follow.
Reported normalized growth by item:
Give the value as a plain number.

These solved cases illustrate the format of a correct answer.
Memo: COc1cc(-c2oc3cc(O)ccc3c(=O)c2O)cc(OC)c1OC , reported normalized growth: 0.98

For this compound ( COC(=O)CSCCc1nc(-c2ccc([N+](=O)[O-])cc2)cs1 ), measured normalized growth is 0.965

// normalized growth lookup, compound = Cc1ccc(OCc2nnc(SCC(=O)c3ccc(F)cc3)n2-c2ccccc2)c2c1CCC2 , result: 0.984

Lab note: measured normalized growth of C[C@]12CCC(=O)C=C1CCC1C2C(=O)C[C@@]2(C)C1CC[C@]2(O)C(=O)CO (stereo not given in full) was 0.989

Continuing:
The value of normalized growth measured for the compound Cc1[nH]n(C)c(=O)c1N=Nc1ccc(Cl)cc1 turned out to be 0.979

Documented normalized growth of CCNc1nc(Cl)nc(NCC)n1 : 1

// normalized growth value for O=[N+]([O-])c1ccc(-c2nn[nH]n2)cc1 : 0.987

For reference, reported normalized growth for COc1cc2c(cc1OC)[C@@]13CCN4CC5=CCOC6CC(=O)N2C1[C@H]6[C@H]5C[C@H]43 (stereo not given in full) stands at 1.04

The reported normalized growth of the compound CC(=O)c1cc2cc(Br)ccc2oc1=O was 0.994

normalized growth reading for CC(=O)Nc1cc2ccccc2oc1=O : 0.997

* * *

- assay.overview: chemical genetic growth profiling, strain panel (AID 1159580);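 note: tested at 20 µM; growth read once vehicle control cultures reached saturation at 30 °C; 1 = growth at the plate median or of vehicle wells; lower values mean less growth of the strain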
- measurement.context: S. cerevisiae deletion strains, growth OD, locus YJR066W, strain TOR1, stronger effect = lower value
About 2,000 (36%) of roughly 5,500 compounds were called active. Another 18% or so got no clear call; they are omitted. The list shows a part of the results.
Below is a list of entries, each paired with its recorded normalized growth value.
Just the number, please.

// solved cases for normalized growth follow
// field: normalized growth; key: c1ccc2c(Cc3c[nH]c4ccccc34)c[nH]c2c1 ; value = 0.54

For record COc1cc2c(cc1OC)[C@@]13CCN4CC5=CCOC6CC(=O)N2C1[C@H]6[C@H]5C[C@H]43 (stereo partly specified) the listed normalized growth is 0.973

get_value(item= Cc1onc(-c2ccccc2Cl)c1C(=O)N[C@@H]1C(=O)N2[C@@H]1SC(C)(C)[C@@H]2C(=O)O , readout=normalized growth) returns 0.986

The reported value for COc1cccc(O)c1O in terms of normalized growth is 0.925

Per the records, this compound ( CC(=O)OCC1=C(C(=O)O)N2C(=O)[C@@H](NC(=O)CCCC(N)C(=O)O)C2SC1 (stereo partly specified) ) has normalized growth equal to 0.942

Entry CCOc1cccc(C(=O)c2ccc(O)c(O)c2O)c1 , normalized growth reported as 0.981

Here is the next item to consider.
Lab note: measured normalized growth of CC[C@@H](CO)NC(=O)[C@@H]1C=C2c3cccc4[nH]cc(c34)C[C@H]2N(C)C1 was 0.999

The origin of these recorded values is PubChem BioAssay AID1159580.
